These data points were gathered from the kinase profiling compilation of Christmann-Franck et al. (2016).

- System: MAP2K1 (human)
- Method Description: radiometric filter-binding kinase assay
- Experimental Conditions: compound 0.1 µM
Each item that follows carries a reported residual activity.
Please state the figure in %; there is no need to write the unit.

Illustrative cases are given below, each with its answer.
Return reported residual activity for target or system MAP2K1 (human), item Cc1cc(NC(=O)c2cccc(NC(=O)/C=C/CN(C)C)c2)ccc1Nc1nccc(-c2cccnc2)n1 .
107

Fill in: residual activity on MAP2K1 (human), entry O=C(O)c1ccc(-c2c[nH]c3ncc(-c4ccccc4)cc23)cc1C1CCCC1
105

***
Fetch value of residual activity on MAP2K1 (human) for C/C(=C1/C(=O)Nc2ccc(NC(N)=O)cc21)c1ccc[nH]1 .
7

State recorded residual activity with MAP2K1 (human), entry COc1cc(O)c2c(c1)[C@H]1OC1C[C@H](O)[C@H](O)C(=O)/C=C\C[C@H](C)OC2=O (stereo not given in full) , no comment.
21

Specify residual activity for CCc1cncnc1N1CCN(Cc2nc3cc(C(F)(F)F)ccc3[nH]2)CC1 , system MAP2K1 (human).
117

---

Entries and their residual activity
- System: CHEK1 (human) (UniProt O14757)
- Sequence (O14757 whole entry, looked up): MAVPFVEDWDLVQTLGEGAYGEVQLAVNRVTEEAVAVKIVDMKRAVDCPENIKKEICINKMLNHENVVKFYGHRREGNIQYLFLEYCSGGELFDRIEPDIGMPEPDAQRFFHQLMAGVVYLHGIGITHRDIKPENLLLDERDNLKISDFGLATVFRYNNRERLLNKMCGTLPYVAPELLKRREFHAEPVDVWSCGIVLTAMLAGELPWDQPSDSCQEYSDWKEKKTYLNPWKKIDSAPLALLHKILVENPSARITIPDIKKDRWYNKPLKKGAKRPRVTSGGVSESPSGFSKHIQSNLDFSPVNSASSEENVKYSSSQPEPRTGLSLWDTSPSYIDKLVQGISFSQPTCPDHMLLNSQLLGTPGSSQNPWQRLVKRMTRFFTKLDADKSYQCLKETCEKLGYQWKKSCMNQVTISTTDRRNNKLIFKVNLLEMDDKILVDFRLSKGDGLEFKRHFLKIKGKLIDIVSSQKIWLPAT
- Method Description: radiometric filter-binding kinase assay
- Experimental Conditions: compound 0.01 µM
Form entry: enter the amount, then its unit.

Solved cases (4 shown):
Determine its reported residual activity: O=C(Nc1nc2cc(C(F)(F)F)cc(NC3CC3)n2n1)c1cccnc1
103%

Supply reported residual activity belonging to this molecule: COc1cc(O)c2c(c1)[C@H]1OC1C[C@H](O)[C@H](O)C(=O)/C=C\C[C@H](C)OC2=O (stereo not given in full)
93%

Please give measured residual activity of the following entry: CNC(=O)C1[C@H]2O[C@@](C)([C@@H]1N)n1c3ccccc3c3c4c(c5c6ccccc6n2c5c31)C(=O)NC4 (stereo not given in full)
11%

Entry COc1ccc(N(C(=O)Nc2c(C)cccc2C)c2cc(Nc3ccc(N4CCN(C)CC4)cc3)ncn2)c(OC)c1 needs its residual activity filled in; supply it.
95%

Next:
Supply recorded residual activity for CNc1nc(-c2ccc3c(N)n[nH]c3c2)cc(N2C[C@@H](C(=O)NC3CCCCC3)CC[C@H]2C)n1 here.
111%

---

# residual activity per record follows
- System: MAPKAPK3 (human) (UniProt Q16644)
- Sequence (Q16644 whole entry, looked up): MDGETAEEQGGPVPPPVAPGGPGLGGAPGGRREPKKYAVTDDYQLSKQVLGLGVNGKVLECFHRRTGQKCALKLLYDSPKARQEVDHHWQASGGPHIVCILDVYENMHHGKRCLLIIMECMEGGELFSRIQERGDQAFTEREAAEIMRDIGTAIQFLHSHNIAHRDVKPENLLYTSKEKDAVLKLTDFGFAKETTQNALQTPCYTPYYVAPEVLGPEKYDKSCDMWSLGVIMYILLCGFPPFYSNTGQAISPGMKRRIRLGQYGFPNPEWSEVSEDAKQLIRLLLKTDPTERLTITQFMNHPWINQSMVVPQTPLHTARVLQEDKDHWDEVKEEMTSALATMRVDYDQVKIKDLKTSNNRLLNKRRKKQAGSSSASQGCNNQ
- Method Description: radiometric filter-binding kinase assay
- Experimental Conditions: compound 1.0 µM
Quick note: number first, unit second.

In the examples that follow, each entry is paired with its recorded residual activity.
Let me know recorded residual activity for COc1ccc2c(c1)c1c3c(c4c5ccccc5n(C)c4c1n2CC(O)CN(C)C)C(=O)NC3=O (stereo unspecified) , thanks.
92%

Please list residual activity recorded for the compound Nc1cccc2c1CN(C1CCC(=O)NC1=O)C2=O (stereo unspecified)
94%

Look up and state reported residual activity for Cc1cccc(-c2nn(C(=S)Nc3ccccc3)cc2-c2ccnc3ccccc23)n1
97%

Quickly give me recorded residual activity for O=C(NCCCNc1nc(Nc2cccc(CN3CCOCC3)c2)ncc1C1CC1)C1CCC1
104%

Annotate the compound NC1(c2ccc(-c3nc4ccn5c(=O)[nH]nc5c4cc3-c3ccccc3)cc2)CCC1 with its measured residual activity.
107%

Proceed to the following item.
Fill in residual activity for record C=CC(=O)N1CCC[C@@H](n2nc(-c3ccc(Oc4ccccc4)cc3)c3c(N)ncnc32)C1
109%

---

- System: MKNK2 (human) (UniProt Q9HBH9)
- Sequence (Q9HBH9 whole entry, looked up): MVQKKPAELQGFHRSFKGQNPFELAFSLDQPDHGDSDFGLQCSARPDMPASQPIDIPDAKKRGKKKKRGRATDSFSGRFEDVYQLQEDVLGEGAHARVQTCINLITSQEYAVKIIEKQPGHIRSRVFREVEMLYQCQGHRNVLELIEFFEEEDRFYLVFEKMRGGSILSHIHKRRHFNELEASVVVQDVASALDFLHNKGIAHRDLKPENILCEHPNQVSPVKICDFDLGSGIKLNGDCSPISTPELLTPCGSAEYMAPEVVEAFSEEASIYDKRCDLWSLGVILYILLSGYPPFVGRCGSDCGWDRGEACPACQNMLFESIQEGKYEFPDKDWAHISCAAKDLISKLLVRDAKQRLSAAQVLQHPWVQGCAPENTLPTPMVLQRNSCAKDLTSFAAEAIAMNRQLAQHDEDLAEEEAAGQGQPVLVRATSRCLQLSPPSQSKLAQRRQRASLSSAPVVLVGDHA
- Method Description: radiometric filter-binding kinase assay
- Experimental Conditions: compound 0.1 µM
Measured residual activity, listed per entry.
Write the value in % as a bare number.

Please review the entries below; each comes with its answer.
Report measured residual activity; entry is Cc1cc(NC(=O)c2cccc(NC(=O)/C=C/CN(C)C)c2)ccc1Nc1nccc(-c2cccnc2)n1
84

Identify measured residual activity associated with Cn1c(=O)c2c(ncn2C)n(C)c1=O
87

Please indicate residual activity recorded for NC(=O)c1cc(-c2ccnc(NC3CCCCC3)c2)nc(N2CCNCC2)c1
76

Further cases:
Quickly give me recorded residual activity for NC1(c2ccc(-c3nc4ccn5c(=O)[nH]nc5c4cc3-c3ccccc3)cc2)CCC1
90

Find the measured residual activity of Cc1cccc(-c2nn(C(=S)Nc3ccccc3)cc2-c2ccnc3ccccc23)n1 and report it.
81

Report residual activity, nothing else, for this compound: CC1=C(CO)C(=O)O[C@@H]([C@@H](C)[C@H]2CC[C@H]3[C@@H]4C[C@H]5O[C@]56[C@@H](O)C=CC(=O)[C@]6(C)C4CC[C@]23C)C1 (stereo partly drawn)
99

Report residual activity for CNC(=O)C1[C@H]2O[C@@](C)([C@@H]1N)n1c3ccccc3c3c4c(c5c6ccccc6n2c5c31)C(=O)NC4 (stereo partly drawn)
12

Report measured residual activity; entry is Cc1ccc(-c2ccc3c(ccc4sc5c(c43)NC[C@@H](C)NC5=O)n2)cn1
111

---

Each entry below carries its reported residual activity.
- System: TBK1 (human) (UniProt Q9UHD2)
- Sequence (Q9UHD2 whole entry, looked up): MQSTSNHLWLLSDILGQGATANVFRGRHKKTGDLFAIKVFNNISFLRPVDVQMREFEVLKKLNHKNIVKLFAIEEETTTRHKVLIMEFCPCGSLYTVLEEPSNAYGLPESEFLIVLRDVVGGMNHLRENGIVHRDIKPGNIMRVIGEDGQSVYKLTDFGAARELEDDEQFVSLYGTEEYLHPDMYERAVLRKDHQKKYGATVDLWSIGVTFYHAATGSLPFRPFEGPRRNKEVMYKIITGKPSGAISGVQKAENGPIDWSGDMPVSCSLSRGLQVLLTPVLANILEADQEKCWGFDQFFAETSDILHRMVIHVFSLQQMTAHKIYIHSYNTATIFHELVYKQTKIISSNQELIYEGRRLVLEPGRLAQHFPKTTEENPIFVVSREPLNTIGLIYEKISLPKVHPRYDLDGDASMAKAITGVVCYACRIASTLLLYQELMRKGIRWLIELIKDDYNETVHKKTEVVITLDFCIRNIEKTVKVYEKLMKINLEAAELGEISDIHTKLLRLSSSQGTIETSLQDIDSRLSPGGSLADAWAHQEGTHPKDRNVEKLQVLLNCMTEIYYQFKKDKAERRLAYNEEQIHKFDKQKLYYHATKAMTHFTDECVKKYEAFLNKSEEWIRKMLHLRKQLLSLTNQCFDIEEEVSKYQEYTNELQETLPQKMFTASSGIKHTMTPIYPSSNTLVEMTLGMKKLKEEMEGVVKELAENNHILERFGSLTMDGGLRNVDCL
- Method Description: radiometric filter-binding kinase assay
- Experimental Conditions: compound 0.01 µM
Report the value in % with no unit label.

Take a look at these entries with their results.
Please report the measured residual activity for CNC(=O)C1[C@H]2O[C@@](C)([C@@H]1N)n1c3ccccc3c3c4c(c5c6ccccc6n2c5c31)C(=O)NC4 (stereo partly specified) tested on TBK1 (human) (UniProt Q9UHD2).
22

Provide the reported residual activity (system: TBK1 (human) (UniProt Q9UHD2)) for O=C(Nc1nc2cc(C(F)(F)F)cc(NC3CC3)n2n1)c1cccnc1
99

Next:
Look up and report measured residual activity (TBK1 (human) (UniProt Q9UHD2)) for the following compound: COc1ccc(N(C(=O)Nc2c(C)cccc2C)c2cc(Nc3ccc(N4CCN(C)CC4)cc3)ncn2)c(OC)c1
101

Please respond with reported residual activity (system TBK1 (human) (UniProt Q9UHD2)) for C/C(=C1/C(=O)Nc2ccc(NC(N)=O)cc21)c1ccc[nH]1 .
83

Report its residual activity with TBK1 (human) (UniProt Q9UHD2) as the test system: COc1cc(O)c2c(c1)[C@H]1OC1C[C@H](O)[C@H](O)C(=O)/C=C\C[C@H](C)OC2=O (stereo partly specified)
110

Report residual activity under test system TBK1 (human) (UniProt Q9UHD2) for CNc1nc(-c2ccc3c(N)n[nH]c3c2)cc(N2C[C@@H](C(=O)NC3CCCCC3)CC[C@H]2C)n1 .
110

---

residual activity by entry:
- System: MAP2K6 (human) (UniProt P52564)
- Sequence (P52564 whole entry, looked up): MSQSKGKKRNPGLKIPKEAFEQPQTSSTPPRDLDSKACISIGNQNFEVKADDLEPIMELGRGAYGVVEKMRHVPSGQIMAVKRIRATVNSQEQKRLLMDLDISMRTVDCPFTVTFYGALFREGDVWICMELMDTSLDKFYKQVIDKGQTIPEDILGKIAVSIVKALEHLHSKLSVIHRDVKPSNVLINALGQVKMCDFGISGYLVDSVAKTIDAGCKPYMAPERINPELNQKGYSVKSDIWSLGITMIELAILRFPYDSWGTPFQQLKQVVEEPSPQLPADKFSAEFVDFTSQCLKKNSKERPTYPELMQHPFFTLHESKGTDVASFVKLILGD
- Method Description: radiometric filter-binding kinase assay
- Experimental Conditions: compound 0.1 µM
The reply should be a number in %, with the unit left off.

Reference set, count: 3
Indicate the recorded residual activity value for this compound: O=C(NCCCNc1nc(Nc2cccc(CN3CCOCC3)c2)ncc1C1CC1)C1CCC1
105

Given NC(=O)c1cc(-c2ccnc(NC3CCCCC3)c2)nc(N2CCNCC2)c1 , respond with its residual activity.
92

Answer with reported residual activity of COc1ccc(-n2ncc3cnc(Nc4cc(OC)c(OC)c(OCCCN5CCN(C)CC5)c4)nc32)cc1
99

Further cases:
Input NC1(c2ccc(-c3nc4ccn5c(=O)[nH]nc5c4cc3-c3ccccc3)cc2)CCC1 , output reported residual activity.
109

// Input: CN1CCN(CCOc2cc(OC3CCOCC3)c3c(Nc4c(Cl)ccc5c4OCO5)ncnc3c2)CC1 . Output its residual activity only.
100

---

- System: TTBK2 (human) (UniProt Q6IQ55)
- Sequence (Q6IQ55 whole entry, looked up): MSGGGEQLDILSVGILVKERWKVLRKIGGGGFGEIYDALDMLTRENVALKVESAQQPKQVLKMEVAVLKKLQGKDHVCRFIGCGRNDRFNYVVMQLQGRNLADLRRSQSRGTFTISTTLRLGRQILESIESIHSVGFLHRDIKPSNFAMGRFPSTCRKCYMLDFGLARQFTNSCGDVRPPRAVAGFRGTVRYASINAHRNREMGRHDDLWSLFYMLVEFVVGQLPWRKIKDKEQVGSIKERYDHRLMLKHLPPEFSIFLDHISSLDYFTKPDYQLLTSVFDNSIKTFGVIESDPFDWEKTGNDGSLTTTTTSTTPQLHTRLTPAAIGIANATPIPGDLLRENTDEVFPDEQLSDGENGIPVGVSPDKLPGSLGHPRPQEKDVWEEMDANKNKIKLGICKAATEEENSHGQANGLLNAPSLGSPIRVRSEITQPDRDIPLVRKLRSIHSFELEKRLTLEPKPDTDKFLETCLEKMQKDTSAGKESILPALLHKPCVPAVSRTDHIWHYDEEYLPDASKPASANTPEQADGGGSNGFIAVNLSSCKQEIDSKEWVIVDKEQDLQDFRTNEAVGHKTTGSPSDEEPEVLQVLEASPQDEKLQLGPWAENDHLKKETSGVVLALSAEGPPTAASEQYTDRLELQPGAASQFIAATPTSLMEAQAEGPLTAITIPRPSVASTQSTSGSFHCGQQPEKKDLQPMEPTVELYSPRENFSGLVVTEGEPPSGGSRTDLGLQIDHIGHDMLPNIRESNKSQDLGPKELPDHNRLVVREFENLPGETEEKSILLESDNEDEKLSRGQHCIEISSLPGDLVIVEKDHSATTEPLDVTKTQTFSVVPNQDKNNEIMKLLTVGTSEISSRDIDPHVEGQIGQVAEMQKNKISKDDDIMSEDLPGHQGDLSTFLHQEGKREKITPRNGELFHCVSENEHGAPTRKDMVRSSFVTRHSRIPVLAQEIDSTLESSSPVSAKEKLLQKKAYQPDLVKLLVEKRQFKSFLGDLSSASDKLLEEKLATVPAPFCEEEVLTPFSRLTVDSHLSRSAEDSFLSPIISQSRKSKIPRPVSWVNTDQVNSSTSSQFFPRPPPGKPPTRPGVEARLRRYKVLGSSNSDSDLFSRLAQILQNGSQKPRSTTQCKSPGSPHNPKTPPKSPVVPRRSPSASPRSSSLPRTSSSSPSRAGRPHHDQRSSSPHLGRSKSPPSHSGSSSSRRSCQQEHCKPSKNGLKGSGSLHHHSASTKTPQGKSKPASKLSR
- Method Description: radiometric filter-binding kinase assay
- Experimental Conditions: compound 1.0 µM
compounds and their reported residual activity
Please provide the amount together with its unit, number first.

Report its residual activity with TTBK2 (human) (UniProt Q6IQ55) as the test system: CCNc1nc(Nc2cc(F)c(C(=O)N3CCOCC3)cc2OC)ncc1C(F)(F)F
95%

Identify measured residual activity obtained with TTBK2 (human) (UniProt Q6IQ55) for COc1cc(C(=O)N2CCOCC2)c(F)cc1Nc1ncc(C(F)(F)F)c(NC2CC2)n1 .
91%

Please tell me the measured residual activity for CNC(=O)C1[C@H]2O[C@@](C)([C@@H]1N)n1c3ccccc3c3c4c(c5c6ccccc6n2c5c31)C(=O)NC4 (stereo partly drawn) ; system: TTBK2 (human) (UniProt Q6IQ55).
90%

Report residual activity from TTBK2 (human) (UniProt Q6IQ55) testing of C=C1C(=O)OC2C1CC/C(C)=C/CCC1(C)OC21 (stereo not drawn)
125%

Recall the reported residual activity of Cc1ccc(-c2ccc3c(ccc4sc5c(c43)NC[C@@H](C)NC5=O)n2)cn1 when tested on TTBK2 (human) (UniProt Q6IQ55).
122%

Provide TTBK2 (human) (UniProt Q6IQ55) residual activity reading for CCn1c(-c2nonc2N)nc2cncc(CNC3CCNCC3)c21 .
95%

Fill in: residual activity on TTBK2 (human) (UniProt Q6IQ55), entry NCC(=O)Nc1ccc(-n2nc(C(F)(F)F)cc2-c2ccc3c(ccc4ccccc43)c2)cc1
96%

Please indicate recorded residual activity of CC1=C(CO)C(=O)O[C@@H]([C@@H](C)[C@H]2CC[C@H]3[C@@H]4C[C@H]5O[C@]56[C@@H](O)C=CC(=O)[C@]6(C)C4CC[C@]23C)C1 (stereo partly drawn) measured with TTBK2 (human) (UniProt Q6IQ55).
105%
